pIC50: −log10 of the molar value. Positions of bridges follow the written chain, without caps; N, C: chain ends. Non-standard residues stand in square brackets, D forms with d. Residues, ends and D or L forms follow the SMILES beside them. Phe(4-CH2NHiPr) = CC(C)NCc1ccc(C[C@H](N)C(=O)O)cc1
Let's go through some pIC50 measurements on Somatostatin receptor type 2 (Homo sapiens) together.
Sequence (P30874 whole entry): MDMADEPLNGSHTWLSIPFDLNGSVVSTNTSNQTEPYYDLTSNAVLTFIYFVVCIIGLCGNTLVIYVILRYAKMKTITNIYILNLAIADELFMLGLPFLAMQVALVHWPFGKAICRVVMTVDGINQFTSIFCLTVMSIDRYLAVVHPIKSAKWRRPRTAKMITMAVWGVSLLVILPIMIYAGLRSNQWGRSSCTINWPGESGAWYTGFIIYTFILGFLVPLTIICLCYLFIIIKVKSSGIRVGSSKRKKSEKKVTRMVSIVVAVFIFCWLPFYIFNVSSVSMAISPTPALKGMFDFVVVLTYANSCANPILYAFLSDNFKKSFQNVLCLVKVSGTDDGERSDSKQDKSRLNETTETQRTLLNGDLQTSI

Before answering, review these 2 worked examples.
[[record]]
compound = "CC(C)NCc1ccc(C[C@@H]2NC(=O)[C@H](Cc3c[nH]c4ccccc34)NC(=O)[C@H](Cc3ccccc3)NC(=O)[C@H](Cc3ccccc3)NC(=O)[C@H](CCCCN)NC(=O)[C@@H](N)CSSC[C@@H](C(=O)O)NC(=O)[C@H](CO)NC(=O)[C@H]([C@@H](C)O)NC(=O)[C@H](Cc3ccc(O)cc3)NC(=O)[C@H]([C@@H](C)O)NC2=O)cc1 (H-CKFFW[Phe(4-CH2NHiPr)]TYTSC-OH; disulfide 1-11)"
measuredresult = "< 6.00"

[[record]]
compound = "CC(C)NCc1ccc(C[C@@H]2NC(=O)[C@H](N(C)C(=O)c3ccc4ccccc4c3)NC(=O)[C@H](Cc3ccccc3)NC(=O)[C@H](Cc3ccccc3)NC(=O)[C@H](CCCCN)NC(=O)[C@@H](N)CSSC[C@@H](C(=O)O)NC(=O)[C@H](CO)NC(=O)[C@H]([C@@H](C)O)NC(=O)[C@H](Cc3ccc(O)c(I)c3)NC(=O)[C@H]([C@@H](C)O)NC2=O)cc1"
measuredresult = "< 6.00"


Now examine the next entry.
Returns the measured pIC50 for the input compound. Input: CC(C)NCc1ccc(C[C@@H]2NC(=O)[C@@H](Cc3ccc4ccccc4c3)NC(=O)[C@H](Cc3ccccc3)NC(=O)[C@H](Cc3ccccc3)NC(=O)[C@H](CCCCN)NC(=O)[C@@H](N)CSSC[C@@H](C(=O)N[C@@H](CCCCN)C(=O)N[C@@H](CCCCN)C(=O)N[C@@H](CCCCN)C(=O)O)N(C)C(=O)[C@H](CO)NC(=O)[C@H]([C@@H](C)O)NC(=O)[C@H](Cc3ccccc3)NC(=O)[C@H]([C@@H](C)O)NC2=O)cc1
< 6.00
